system: Staphylococcus aureus; test: Antibacterial activity against Staphylococcus aureus clinical isolate assessed as bacterial growth inhibition incubated for 20 hrs by CLSI based broth microdilution method; assay type: functional
measured-metric: MIC (µg/mL)
Lab book: enter the figure in µg/mL, no units written.

Guide cases for MIC, answers given:
C[n+]1cc(-c2ccccc2)cc(/C=C/c2ccc(F)cc2)c1-c1ccccc1.[I-]; 8
CCCCCCCOc1ccc(/C=C/c2cc(-c3ccccc3)c[n+](C)c2-c2ccccc2)cc1.[I-]; 8
C[n+]1cc(-c2ccccc2)c(/C=C/c2ccc(C(C)(C)C)cc2)cc1-c1ccc(C(C)(C)C)cc1.[I-]; 0.062
NC(=O)c1c(F)ccc(OCc2nc3cc(Cl)cnc3s2)c1F; 1
CCCCCCOc1ccc(/C=C/c2cc(-c3ccccc3)[n+](C)cc2-c2ccccc2)cc1.[I-]; 0.5
CCc1ccc(/C=C/c2cc(-c3ccc(C(C)(C)C)cc3)[n+](C)cc2-c2ccccc2C)cc1.[I-]; 0.5

Report MIC, nothing else, for this compound: C[n+]1cc(-c2ccccc2)c(/C=C/c2ccc(O)cc2)cc1-c1ccccc1.[I-] 16

Report MIC, nothing else, for this compound: Cc1ccccc1-c1c[n+](C)c(-c2ccc(C(C)(C)C)cc2)cc1/C=C/c1ccc(C(C)(C)C)cc1.[I-] 0.25

Report MIC, nothing else, for this compound: C[n+]1cc(-c2ccccc2)cc(/C=C/c2ccc(Br)cc2)c1-c1ccccc1.[I-] 2

Report MIC, nothing else, for this compound: Cc1ccc(/C=C/c2cc(-c3ccc(C(C)(C)C)cc3)[n+](C)cc2-c2ccccc2C)cc1.[I-] 0.5

Report MIC, nothing else, for this compound: C[n+]1cc(-c2ccccc2)c(/C=C/c2ccc(N)cc2)cc1-c1ccc(C(C)(C)C)cc1.[I-] 0.25

Report MIC, nothing else, for this compound: CCCOc1ccc(/C=C/c2cc(-c3ccccc3)c[n+](C)c2-c2ccccc2)cc1.[I-] 0.5

Report MIC, nothing else, for this compound: CN(C)[C@@H]1C(O)=C(C(N)=O)C(=O)[C@@]2(O)C(O)=C3C(=O)c4c(O)cccc4[C@@](C)(O)[C@H]3C[C@@H]12 1
